Exercise: state measured pIC50 for each of the binders provided.
# experimental system: T1, human MCH-1R (human, UniProt Q99705 1-353)
# T1 construct: also called MCH-R1
# T1 sequence (Q99705 whole entry, form in doubt): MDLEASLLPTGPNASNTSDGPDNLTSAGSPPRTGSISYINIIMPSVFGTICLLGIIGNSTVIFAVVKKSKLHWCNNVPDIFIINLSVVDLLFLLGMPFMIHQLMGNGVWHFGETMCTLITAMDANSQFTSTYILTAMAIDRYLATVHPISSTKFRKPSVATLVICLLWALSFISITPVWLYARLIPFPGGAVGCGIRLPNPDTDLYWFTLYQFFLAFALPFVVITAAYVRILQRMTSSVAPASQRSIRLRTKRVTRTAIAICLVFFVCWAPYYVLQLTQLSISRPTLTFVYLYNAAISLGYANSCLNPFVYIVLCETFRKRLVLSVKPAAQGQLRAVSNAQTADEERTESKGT
# experiment: SPA competition with [125I]-human MCH (Phe13, Tyr19) on receptor membranes
Bridges are numbered along the chain shown (N, C = ends). [ ]: non-standard residue; d: D form. Nle = CCCC[C@H](N)C(=O)O
Numbers only, as −log10 of the molar value.

{"binder": "Ac-RCML[dN]RVYRPC-NH2 (disulfide 2-11 (inferred), also called D-Asn^10) [SEQ. ID. NO. 18]", "pIC50": 7.01}
{"binder": "Ac-RCMLSRVYRPC-NH2 (disulfide 2-11; SMILES CSCC[C@@H]1NC(=O)[C@@H](NC(=O)[C@H](CCCNC(=N)N)NC(C)=O)CSSC[C@@H](C(N)=O)NC(=O)[C@@H]2CCCN2C(=O)[C@H](CCCNC(=N)N)NC(=O)[C@H](Cc2ccc(O)cc2)NC(=O)[C@H](C(C)C)NC(=O)[C@H](CCCNC(=N)N)NC(=O)[C@H](CO)NC(=O)[C@H](CC(C)C)NC1=O, also called Ser^10) [SEQ. ID. NO. 10]", "pIC50": 9.49}
{"binder": "RCXLGRVYRPC (Nle^8 (norleucine), also called Nle^8) [SEQ. ID. NO. 5]", "pIC50": 9.30}
{"binder": "Ac-RCALGRVYRPC-NH2 (disulfide 2-11; SMILES CC(=O)N[C@@H](CCCNC(=N)N)C(=O)N[C@H]1CSSC[C@@H](C(N)=O)NC(=O)[C@@H]2CCCN2C(=O)[C@H](CCCNC(=N)N)NC(=O)[C@H](Cc2ccc(O)cc2)NC(=O)[C@H](C(C)C)NC(=O)[C@H](CCCNC(=N)N)NC(=O)CNC(=O)[C@H](CC(C)C)NC(=O)[C@H](C)NC1=O, also called Ala^8) [SEQ. ID. NO. 4]", "pIC50": 7.82}
{"binder": "Ac-RCMLARVYRPC-NH2 (disulfide 2-11; SMILES CSCC[C@@H]1NC(=O)[C@@H](NC(=O)[C@H](CCCNC(=N)N)NC(C)=O)CSSC[C@@H](C(N)=O)NC(=O)[C@@H]2CCCN2C(=O)[C@H](CCCNC(=N)N)NC(=O)[C@H](Cc2ccc(O)cc2)NC(=O)[C@H](C(C)C)NC(=O)[C@H](CCCNC(=N)N)NC(=O)[C@H](C)NC(=O)[C@H](CC(C)C)NC1=O, also called Ala^10) [SEQ. ID. NO. 7]", "pIC50": 9.23}
{"binder": "Ac-RCMLG[Nle]VYRPC-NH2 (disulfide 2-11 (inferred), also called Nle^11) [SEQ. ID. NO. 26]", "pIC50": 6.52}

Next binder, pIC50 to be filled in.
IN: Which pIC50 value belongs to Ac-RCML[dF]RVYRPC-NH2 (disulfide 2-11 (inferred), also called D-Phe^10) [SEQ. ID. NO. 17] ?
OUT: 7.74
